System: Mus musculus
Experiment: Cardioprotective activity against DOX-induced acute heart failure DCM in ip dosed C57BL/6J mouse model assessed as improvement in the maximum ascending rate of the LV pressure administered qd from day 10 post DOX-challenge measured after 50 days by echocardiography
Type: functional, organism-based
Active and inactive are the calls of the source. The calls are words filed in the database; no cut-off is given here.
Labels: active, inactive

itemsmiles=CC1(C)[C@@H](O[C@H]2O[C@H](C(=O)O)[C@@H](O)[C@H](O)[C@H]2O[C@@H]2O[C@H](C(=O)O)[C@@H](O)[C@H](O)[C@H]2O)CC[C@]2(C)[C@H]3C(=O)C=C4[C@@H]5C[C@@](C)(CN[C@@H](Cc6c[nH]c7ccccc67)C(=O)O)CC[C@]5(C)CC[C@@]4(C)[C@]3(C)CC[C@@H]12 targetundertest="Mus musculus" classlabel=active
itemsmiles=CC1(C)[C@@H](O[C@H]2O[C@H](C(=O)O)[C@@H](O)[C@H](O)[C@H]2O[C@@H]2O[C@H](C(=O)O)[C@@H](O)[C@H](O)[C@H]2O)CC[C@]2(C)[C@H]3C(=O)C=C4[C@@H]5C[C@@](C)(CN[C@@H](CC(=O)O)C(=O)O)CC[C@]5(C)CC[C@@]4(C)[C@]3(C)CC[C@@H]12 targetundertest="Mus musculus" classlabel=active
itemsmiles=CC1(C)[C@@H](O[C@H]2O[C@H](C(=O)O)[C@@H](O)[C@H](O)[C@H]2O[C@@H]2O[C@H](C(=O)O)[C@@H](O)[C@H](O)[C@H]2O)CC[C@]2(C)[C@H]3C(=O)C=C4[C@@H]5C[C@@](C)(CN[C@@H](CCC(=O)O)C(=O)O)CC[C@]5(C)CC[C@@]4(C)[C@]3(C)CC[C@@H]12 targetundertest="Mus musculus" classlabel=active
itemsmiles=CC1(C)[C@@H](O[C@H]2O[C@H](C(=O)O)[C@@H](O)[C@H](O)[C@H]2O[C@@H]2O[C@H](C(=O)O)[C@@H](O)[C@H](O)[C@H]2O)CC[C@]2(C)[C@H]3C(=O)C=C4[C@@H]5C[C@@](C)(CNCC(=O)O)CC[C@]5(C)CC[C@@]4(C)[C@]3(C)CC[C@@H]12 targetundertest="Mus musculus" classlabel=inactive
itemsmiles=CC1(C)[C@@H](O[C@H]2O[C@H](C(=O)O)[C@@H](O)[C@H](O)[C@H]2O[C@@H]2O[C@H](C(=O)O)[C@@H](O)[C@H](O)[C@H]2O)CC[C@]2(C)[C@H]3C(=O)C=C4[C@@H]5C[C@@](C)(CN[C@@H](CO)C(=O)O)CC[C@]5(C)CC[C@@]4(C)[C@]3(C)CC[C@@H]12 targetundertest="Mus musculus" classlabel=active
